target: MMP-7 (Homo sapiens)
Sequence (P09237 95-267): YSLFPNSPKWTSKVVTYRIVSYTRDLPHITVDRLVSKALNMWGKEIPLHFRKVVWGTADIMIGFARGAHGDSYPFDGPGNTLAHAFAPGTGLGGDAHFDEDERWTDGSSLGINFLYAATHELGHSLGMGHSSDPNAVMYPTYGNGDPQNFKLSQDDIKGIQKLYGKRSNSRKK
experimentalEndpoint: log10(IC50) (log10 of the value in µM)

[[record]]
molecule = "COc1cc(/C=C/C(=O)CC(=O)/C=C/c2ccc(O)c(OC)c2)ccc1O [Compound 1, reference compound]"
assaytarget = "MMP-7 (Homo sapiens)"
experimentalendpoint = "log10(IC50)"
experimentalresult = 1.71

[[record]]
molecule = "COC(=O)C(C(=O)/C=C/c1ccc(O)cc1)C(=O)/C=C/c1ccc(O)cc1 [Compound 5]"
assaytarget = "MMP-7 (Homo sapiens)"
experimentalendpoint = "log10(IC50)"
experimentalresult = 1.76

[[record]]
molecule = "COC(=O)C(C(=O)/C=C/c1ccc(O)c(OC)c1)C(=O)/C=C/c1ccc(O)c(OC)c1 [Compound 2]"
assaytarget = "MMP-7 (Homo sapiens)"
experimentalendpoint = "log10(IC50)"
experimentalresult = 1.69

[[record]]
molecule = "COc1cc(/C=C/C(=O)C(C(=O)/C=C/c2ccc(O)c(OC)c2)C(=O)Nc2ccccc2)ccc1O [Compound 3]"
assaytarget = "MMP-7 (Homo sapiens)"
experimentalendpoint = "log10(IC50)"
experimentalresult = 1.33

[[record]]
molecule = "c1cnc2c(c1)ccc1cccnc12 [1,10-Phen, 1,10-phenanthroline, reference compound]"
assaytarget = "MMP-7 (Homo sapiens)"
experimentalendpoint = "log10(IC50)"
experimentalresult = 2.29

[[record]]
molecule = "O=C(/C=C/c1ccc(O)cc1)C(C(=O)/C=C/c1ccc(O)cc1)C(=O)Nc1ccccc1 [Compound 4]"
assaytarget = "MMP-7 (Homo sapiens)"
experimentalendpoint = "log10(IC50)"
experimentalresult = 0.70

